Biological target: huPD-L1 (Homo sapiens, UniProt Q9NZQ7)
Sequence (Q9NZQ7 19-290): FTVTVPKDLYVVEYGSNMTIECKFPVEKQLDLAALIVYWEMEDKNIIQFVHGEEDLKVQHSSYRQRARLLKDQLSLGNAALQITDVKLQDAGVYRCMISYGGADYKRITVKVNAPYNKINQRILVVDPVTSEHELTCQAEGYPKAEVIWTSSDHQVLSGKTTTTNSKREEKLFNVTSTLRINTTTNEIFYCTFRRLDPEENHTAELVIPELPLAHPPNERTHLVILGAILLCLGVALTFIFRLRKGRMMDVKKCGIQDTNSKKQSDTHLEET
Assay: Flow binding to CHO cells stably expressing PD-L1
Design: huCTLA4 and huPD-L1, full-length mammalian surface expression constructs were generated; expressed in transfected cells; host or cells: CHO cells, lentiviral transduction, sorted to >98% purity
Settings: Table E19; MFI at 33.3 nM relative to WT CD80 ECD-Fc (Abcam)
Procedure: Binding of selected immunomodulatory fusion proteins to cognate binding partners was assessed. […] Cells were sorted in a Bio-Rad S3 Cell Sorter (Bio-Rad Corp., USA) to >98% purity. […] For staining and analysis by flow cytometry, 100,000 cells of appropriate transfected cells were plated in 96-well round bottom plates. […] Cells were then washed twice with 150 μL/well stain buffer, fixed in 2% formaldehyde/PBS, and analyzed on Intellicyt flow cytometer (Intellicyt Corp., USA). […]
List of PD-L1 Fold change to WT CD80 values.
Give the value in fold but do not write fold after it.

Below are worked cases with known answers.
molecule: E35D/N48K/K89N (protein) VIHVTKEVKEVATLSCGHNVSVEELAQTRIYWQKDKKMVLTMMSGDMKIWPEYKNRTIFDITNNLSIVILALRPSDEGTYECVVLKYENDAFKREHLAEVTLSVKAD
val: 45.0

molecule: E35D/V68M/L85Q (protein) VIHVTKEVKEVATLSCGHNVSVEELAQTRIYWQKDKKMVLTMMSGDMNIWPEYKNRTIFDITNNLSIMILALRPSDEGTYECVVQKYEKDAFKREHLAEVTLSVKAD
val: 46.6

Shift focus to the following entry.
Notebook: D46V/M47L/V68M (protein) VIHVTKEVKEVATLSCGHNVSVEELAQTRIYWQKEKKMVLTMMSGVLNIWPEYKNRTIFDITNNLSIMILALRPSDEGTYECVVLKYEKDAFKREHLAEVTLSVKAD , PD-L1 Fold change to WT CD80 read as 218.9
